- Measurement notes: Fraction unbound in rat plasma
- Assay type: ADME, cell-free
Property label: fraction unbound
Please reply with the number alone, leaving off any unit.

Quickly give me recorded fraction unbound for COC[C@H]1Cn2cc(-c3nc(Nc4ccnn4C)ncc3C)nc2C(=O)N1Cc1ccc(F)c(F)c1
0.21

----------
- Tested target: Mitogen-activated protein kinase 1 (Homo sapiens, UniProt P28482)
- Sequence (P28482 whole entry): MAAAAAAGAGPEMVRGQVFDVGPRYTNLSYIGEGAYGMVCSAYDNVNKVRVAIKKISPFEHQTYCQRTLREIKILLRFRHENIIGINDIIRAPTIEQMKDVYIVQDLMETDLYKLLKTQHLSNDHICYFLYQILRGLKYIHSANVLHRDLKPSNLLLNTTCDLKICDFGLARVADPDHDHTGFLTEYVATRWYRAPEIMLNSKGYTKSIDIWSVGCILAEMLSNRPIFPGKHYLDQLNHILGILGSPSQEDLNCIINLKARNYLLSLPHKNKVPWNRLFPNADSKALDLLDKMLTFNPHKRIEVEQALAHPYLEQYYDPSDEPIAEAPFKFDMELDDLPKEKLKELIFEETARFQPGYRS
- Measurement notes: Inhibition of MEK U911-activated ERK2 (unknown origin) using ERKtide as substrate preincubated for 20 mins followed by substrate addition in presence of 1 mM ATP after 10 mins by rapidfire mass spectrometry analysis
Property label: IC50 (nM)
Field format: number, assumed nM, no unit text.

Quickly give me recorded IC50 for Cc1cnc(Nc2ccnn2C)nc1-c1cc2n(c1)CCN(Cc1cccc(Cl)c1)C2=O
0.13

Quickly give me recorded IC50 for Cc1cnc(Nc2ccnn2C)nc1-c1cn2c(n1)C(=O)N(Cc1ccc(F)c(F)c1)[C@@H](C)C2
0.32

Quickly give me recorded IC50 for COC[C@H]1Cn2cc(-c3nc(Nc4ccnn4C)ncc3C)nc2C(=O)N1Cc1ccc(F)c(F)c1
0.66

Quickly give me recorded IC50 for Cc1cnc(Nc2ccnn2C)nc1-c1cn2c(n1)C(=O)N(Cc1ccc(F)c(F)c1)CC2
2.6

Quickly give me recorded IC50 for Cc1cnc(Nc2ccnn2C)nc1-c1cn2c(n1)C(=O)N(Cc1cccc(Cl)c1)CC2
0.34

Quickly give me recorded IC50 for COC[C@H]1Cn2cc(-c3nc(Nc4ccnn4C)ncc3C)cc2C(=O)N1Cc1cccc(C)n1
0.6

Quickly give me recorded IC50 for Cc1cnc(Nc2ccnn2C)nc1-c1cc2n(c1)CCN(Cc1ccc(F)c(F)c1)C2=O
0.35

----------
- Tested target: Cyclin-dependent kinase 5/CDK5 activator 1 (Homo sapiens)
- Sequence (Q00535 whole entry): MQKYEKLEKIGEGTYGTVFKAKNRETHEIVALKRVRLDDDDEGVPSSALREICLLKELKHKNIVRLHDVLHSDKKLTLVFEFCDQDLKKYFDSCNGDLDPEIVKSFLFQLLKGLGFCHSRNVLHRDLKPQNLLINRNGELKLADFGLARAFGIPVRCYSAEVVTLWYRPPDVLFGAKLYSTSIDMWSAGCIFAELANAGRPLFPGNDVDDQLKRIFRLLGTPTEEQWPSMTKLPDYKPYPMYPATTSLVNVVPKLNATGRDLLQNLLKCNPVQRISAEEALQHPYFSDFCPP
- Sequence (Q15078 whole entry, further chain): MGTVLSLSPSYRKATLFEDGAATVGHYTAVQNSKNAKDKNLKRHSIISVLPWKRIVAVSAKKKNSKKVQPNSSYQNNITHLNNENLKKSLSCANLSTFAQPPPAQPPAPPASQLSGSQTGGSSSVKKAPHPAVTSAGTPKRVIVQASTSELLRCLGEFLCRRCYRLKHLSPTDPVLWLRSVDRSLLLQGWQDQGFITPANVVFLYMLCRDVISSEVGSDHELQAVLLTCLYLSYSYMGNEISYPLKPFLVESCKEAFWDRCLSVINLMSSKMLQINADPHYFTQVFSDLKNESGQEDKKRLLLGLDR
- Measurement notes: Inhibition of recombinant full length human His-tagged CDK5/p35 expressed in baculovirus expression system
Property label: pIC50
# pIC50: negative log10 of molar concentration; output just the value

Quickly give me recorded pIC50 for COC[C@H]1Cn2cc(-c3nc(Nc4ccnn4C)ncc3C)nc2C(=O)N1Cc1ccc(F)c(F)c1
6.52
